Assay: inhibitors of DENV2 cytopathic effect, primary screen, cell-based, plate reader, single concentration (AID 651640);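 note: 0% = median of neutral control wells and 100% = median of positive control wells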
Details: DENV2-infected cells, cytopathic effect rescue, at 9.99 µM, active compounds read high
The whole screen tested about 350,000 compounds, of which about 6,000 (1.7%) were called active. Inconclusive results (about 5%) are left out. What follows is part of a selection rich in actives, with near analogues and random picks from the rest.
readoutLabel: CPE inhibition (%)

>>> valuemeasured("Cc1ccc(S(=O)(=O)Nc2ccc3c(c2)C(=O)N([C@@H](C)CO)C[C@H](C)[C@@H](CN(C)C(=O)Nc2ccc(F)cc2)OCCCC[C@H](C)O3)cc1")
0.458
>>> valuemeasured("C/C=C/c1ccc([C@@H]2[C@@H](CO)N(C(C)=O)[C@H]2CN(C)C(=O)CN(C)C)cc1")
8.38
>>> valuemeasured("C/C=C/c1ccc([C@H]2[C@@H](CO)N(C(=O)NCCC)[C@H]2CN(C)C(C)=O)cc1")
-22.2
>>> valuemeasured("C/C=C/c1ccc([C@@H]2[C@@H](CN(C)C(C)=O)N(C(=O)C3CC3)[C@H]2CO)cc1")
41.4

---

Experiment: inhibitors of DENV2 cytopathic effect, primary screen, cell-based, plate reader, single concentration (AID 651640);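 note: 0% = median of neutral control wells and 100% = median of positive control wells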
Details: DENV2-infected cells, cytopathic effect rescue, at 9.99 µM, active compounds read high
Screen size: about 350,000 compounds; about 6,000 (1.7%) were called active. About 5% were inconclusive and are not listed. What follows is part of a selection rich in actives, with near analogues and random picks from the rest.
Consider the following compounds and their measured CPE inhibition readings.
readoutLabel: CPE inhibition (%)

>>> valuemeasured("O=C(C[C@H]1CC[C@H](NC(=O)CCN2CCCCC2)[C@@H](CO)O1)Nc1ccccc1")
-7.71
>>> valuemeasured("COc1ccc(OC)c(C(C)NC(=S)Nc2ccc(S(=O)(=O)Nc3ncccn3)cc2)c1 (centres undefined)")
49.8
>>> valuemeasured("CN(Cc1cccc2ncccc12)C(=O)CC1C(=O)NCCN1Cc1ccc(F)cc1 (centres undefined)")
2.99
>>> valuemeasured("CN1[C@@H]2CN(C(=O)C3CCCCC3)c3ccccc3[C@@H]2[C@@H]1CO")
-5.31
>>> valuemeasured("COc1ccc(C(=O)N2C[C@@H]3[C@H](c4ccccc42)[C@H](CO)N3Cc2ccc3c(c2)OCO3)cc1")
-6.95
>>> valuemeasured("CN(C)CC(=O)N[C@@H]1CC[C@H](CC(=O)O)O[C@H]1CO")
8.44
>>> valuemeasured("C[C@@H]1CN([C@@H](C)CO)C(=O)c2cc(NS(C)(=O)=O)ccc2O[C@@H]1CN(C)C(=O)Nc1ccccc1")
4.47
>>> valuemeasured("O=C(NC(=S)Nc1ccc(S(=O)(=O)Nc2ncccn2)cc1)c1cccc(Br)c1")
-1.82
>>> valuemeasured("COc1ccc(CN2[C@@H](CO)[C@@H]3c4ccccc4N(C(=O)Nc4ccccc4)C[C@@H]32)cc1")
-9.93
>>> valuemeasured("CC(C)NC(=O)N1C[C@@H]2[C@H](c3ccccc31)[C@H](CO)N2C(=O)C1CCCC1")
-6.09
>>> valuemeasured("O=C(OCC(=O)N1CCOCC1)c1ccc(N2CCOCC2)c([N+](=O)[O-])c1")
2.84
>>> valuemeasured("COc1ccc(CN2[C@H](CO)[C@@H]3c4ccccc4N(C(=O)C4CC4)C[C@@H]32)cc1")
26.1
>>> valuemeasured("COc1cc([C@H](Cc2ccccc2)NC(C)=O)oc(=O)c1")
23.5
>>> valuemeasured("CCOC(=O)C(Cc1ccccc1)NC(=O)CCC(=O)c1ccc(OC)cc1 (centres undefined)")
-0.51
>>> valuemeasured("Cc1cnc(CN(C)C(=O)CC2C(=O)NCCN2Cc2cccc(F)c2F)[nH]1 (centres undefined)")
20.8
>>> valuemeasured("CC(C)c1nc(CNC(=O)CC2C(=O)NCCN2Cc2cccc(F)c2F)cs1 (centres undefined)")
-4.34
>>> valuemeasured("O=C(Cc1ccccc1)N1C[C@H]2[C@@H](c3ccccc31)[C@H](CO)N2C(=O)C1CCOCC1")
2
>>> valuemeasured("CC(Oc1cccc(Cl)c1)C(=O)Nc1ccc(S(=O)(=O)Nc2ncccn2)cc1 (centres undefined)")
2.3
>>> valuemeasured("N#Cc1c(NC(=O)c2ccc(N3CCOCC3)c([N+](=O)[O-])c2)sc2c1CCCC2")
46.3

---

Assay: inhibitors of DENV2 cytopathic effect, primary screen, cell-based, plate reader, single concentration (AID 651640);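 note: 0% = median of neutral control wells and 100% = median of positive control wells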
Details: DENV2-infected cells, cytopathic effect rescue, at 9.99 µM, active compounds read high
In all, about 350,000 compounds went through this assay and about 6,000 (1.7%) were called active. Another 5% or so got no clear call; they are omitted. This is one part of a sample in which actives are shown more often than they occur.
Consider the following molecules and their measured CPE inhibition readings.
readoutLabel: CPE inhibition (%)

>>> valuemeasured("O=C(C[C@H]1C=C[C@@H](NC(=O)Nc2cc(F)ccc2F)[C@@H](CO)O1)NCc1ccc2c(c1)OCO2")
3.1
>>> valuemeasured("O=C(NCc1ccccc1)c1ccc(S(=O)(=O)Nc2cccc(C(F)(F)F)c2)cc1")
2.44
>>> valuemeasured("O=C(NCc1ccncc1)c1ccc(NS(=O)(=O)c2cccc([N+](=O)[O-])c2)cc1")
-0.812
>>> valuemeasured("CO[C@@H]1CN(C)C(=O)c2ccc(NC(=O)c3ccccn3)cc2OC[C@@H](C)N(C(=O)C2CCCCC2)C[C@H]1C")
-2.92

---

Assay: inhibitors of DENV2 cytopathic effect, primary screen, cell-based, plate reader, single concentration (AID 651640);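 note: 0% = median of neutral control wells and 100% = median of positive control wells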
Conditions: DENV2-infected cells, cytopathic effect rescue, at 9.99 µM
The whole screen tested about 350,000 compounds, of which about 6,000 (1.7%) were called active. Not shown: some 5% with an inconclusive outcome. Cut-off read from the data, not from the text of the source: active = CPE inhibition above about 20% (passing the limit was not always enough); inconclusive = no clear call, values can overlap the other calls; tested in BHK-21 cells. For the sample, actives were picked, then their nearest neighbours and some compounds at random.
Labels: Yes (active), No (inactive)

>>> assignedcategory("Cc1ccc(-c2cc(=O)c3ccc(F)cc3[nH]2)cc1")
"Yes"
>>> assignedcategory("O=C(COc1ccc2c3c(c(=O)oc2c1)CCCC3)NCC(O)c1ccccc1 (configuration not stated)")
"No"
>>> assignedcategory("CCCN1C[C@@H](C)[C@@H](OC)CN(C)C(=O)c2cc(NC(=O)c3ccccc3)ccc2OC[C@H]1C")
"No"
>>> assignedcategory("O=C(Cc1ccccn1)N1CC(=O)N2[C@H](C1)[C@@H](c1ccc(-c3ccccc3)cc1)[C@@H]2CO")
"No"
>>> assignedcategory("Cc1cc(C(=O)OCC(=O)N2c3ccccc3NC(=O)C2(C)C)c(C)n1-c1ccccc1")
"No"
>>> assignedcategory("O=C1CN(S(=O)(=O)c2ccccc2)C[C@H]2[C@H](c3ccc(C4=CCCC4)cc3)[C@@H](CO)N12")
"No"
>>> assignedcategory("CCNC(=O)[C@@H]1[C@@H](CO)[C@@H]2Cn3c(ccc(C4=CCCCC4)c3=O)[C@@H]2N1Cc1ccccc1F")
"No"
>>> assignedcategory("C[C@@H]1CN([C@@H](C)CO)C(=O)c2cccc(NS(=O)(=O)c3cccs3)c2O[C@@H]1CN(C)CC1CC1")
"Yes"
>>> assignedcategory("O=c1cc(-c2ccccc2)[nH]c2cc(F)ccc12")
"No"
>>> assignedcategory("COc1ccc(S(=O)(=O)Nc2cccc3c2O[C@@H](CN(C)S(=O)(=O)c2ccc(F)cc2)[C@H](C)CN([C@H](C)CO)C3=O)cc1")
"No"
>>> assignedcategory("Cc1nc(N)nc(SCc2ccc([N+](=O)[O-])cc2)c1N")
"No"
>>> assignedcategory("CO[C@@H]1CN(C)C(=O)c2cc(NC(=O)C3CCCC3)ccc2OC[C@H](C)N(C)C[C@@H]1C")
"No"
>>> assignedcategory("C[C@@H]1CCCCO[C@H](CN(C)S(=O)(=O)c2cccs2)[C@@H](C)CN([C@H](C)CO)C(=O)c2cc(NC(=O)Nc3ccccc3)ccc2O1")
"No"
>>> assignedcategory("O=C(NC1Cc2ccccc2C1)[C@H]1[C@H](CO)[C@H]2Cn3c(ccc(C4=CCCCC4)c3=O)[C@H]2N1CC1CC1")
"Yes"
>>> assignedcategory("O=C(Nc1ccccc1F)N[C@@H]1C=C[C@H](CC(=O)N2CCCCC2)O[C@@H]1CO")
"No"
>>> assignedcategory("Cc1ccc(S(=O)(=O)N(C)C[C@@H]2Oc3c(NC(=O)Nc4ccccc4)cccc3C(=O)N([C@H](C)CO)C[C@H]2C)cc1")
"No"
>>> assignedcategory("COc1ccc(S(=O)(=O)N(C)C[C@@H]2OCCCC[C@@H](C)Oc3ccc(NC(=O)c4ccccc4)cc3C(=O)N([C@@H](C)CO)C[C@H]2C)cc1")
"Yes"
>>> assignedcategory("NC(=O)C1CCN(C(=O)COc2ccc3c4c(c(=O)oc3c2)CCC4)CC1")
"Yes"
>>> assignedcategory("O=C(NC1CCC1)[C@H]1[C@H](CO)[C@H]2Cn3c(ccc(C4=CCCCC4)c3=O)[C@@H]1N2CC1CC1")
"No"
>>> assignedcategory("C[C@@H]1CN([C@@H](C)CO)C(=O)c2cccc(NS(=O)(=O)c3ccc(F)cc3)c2O[C@H]1CN(C)S(=O)(=O)c1cccs1")
"No"
>>> assignedcategory("Cc1ccc(-c2cc(=O)c3ccc(Cl)cc3[nH]2)cc1")
"No"
>>> assignedcategory("Cc1ccc(S(=O)(=O)N(C)C[C@H]2Oc3c(NS(=O)(=O)c4cccs4)cccc3C(=O)N([C@@H](C)CO)C[C@@H]2C)cc1")
"No"
>>> assignedcategory("C[C@@H]1CN([C@H](C)CO)C(=O)Cc2cc(NC(=O)CCN3CCOCC3)ccc2O[C@H]1CN(C)CC1CC1")
"No"
>>> assignedcategory("CO[C@H]1O[C@H](CO)[C@@H](OC(=O)Nc2ccc(C(F)(F)F)cc2)[C@H](OC(=O)Nc2ccc3c(c2)OCO3)[C@H]1OC(=O)Nc1ccc2c(c1)OCO2")
"No"
>>> assignedcategory("C[C@@H]1CN([C@@H](C)CO)C(=O)c2cccc(NS(=O)(=O)c3cccs3)c2O[C@H]1CN(C)Cc1ccncc1")
"No"
>>> assignedcategory("COc1ccc(S(=O)(=O)Nc2cccc3c2O[C@H](CN(C)S(=O)(=O)c2ccc(OC)cc2)[C@@H](C)CN([C@H](C)CO)C3=O)cc1")
"Yes"
>>> assignedcategory("CC(C)CNc1cccc2c1S(=O)(=O)N[C@H](C)CO2")
"No"
>>> assignedcategory("O=C(COc1ccc2c3c(c(=O)oc2c1)CCC3)NC1CCCCC1")
"No"
>>> assignedcategory("CC(C)[C@@H](C)/C=C/[C@@H](C)[C@H]1CC[C@@H]2[C@]1(C)CCC1[C@]23C=C[C@]2(C[C@@H](O)CC[C@]12C)N(c1ccc([N+](=O)[O-])cn1)O3 (some centres not stated)")
"No"
>>> assignedcategory("C[C@H](CO)N1C[C@H](C)[C@H](CN(C)S(=O)(=O)c2ccccc2)Oc2c(NC(=O)Nc3ccccc3)cccc2C1=O")
"No"
>>> assignedcategory("CC(C)NC(=O)Nc1ccc2c(c1)C(=O)N([C@H](C)CO)C[C@@H](C)[C@@H](CN(C)S(=O)(=O)c1cccs1)OCCCC[C@@H](C)O2")
"No"
>>> assignedcategory("C[C@H]1CN([C@@H](C)CO)C(=O)c2cccc(NS(=O)(=O)c3ccc(Cl)cc3)c2O[C@H]1CN(C)S(=O)(=O)c1ccc(Cl)cc1")
"No"

Numbers sourced from PubChem BioAssay AID651640.
